- Test description: Plasma levels of osteogenic compounds after single oral dosing of CSE-Bu or CSE-BuF (LC-MS/MS)
- Condition description: male, Sprague Dawley, rat, in vivo, 250 mg/kg, AUC, CSE-Bu at 250 mg/kg orally, rat plasma, Mean ± SD
- Experimental: All analytes were analyzed using API-QTRAP 4000 mass spectrometer (ABSciex, Canada) equipped with electrospray ionization (ESI) source in negative ion ([M-H]^−) mode [apigenin, isovitexin, emodin, luteolin, 3′,4′,7-trihydroxyflavone (THF), and fenofibric acid (FFA)] and quantified using Analyst 1.6 software (Applied Biosystems, MDS Sciex Toronto, Canada). […]
Reported metric: AUC (ng·h/mL)
Return type: number; implicit unit ng·h/mL.

Input: Can you share its AUC? I mean this compound: Cc1cc(O)c2c(c1)C(=O)c1cc(O)cc(O)c1C2=O [Emodin]
Output: 69.3

====

- Test description: in vivo
- Condition description: rat
Reported metric: plasma level after single oral dosing of CSE-BuF (in words)

O=c1cc(-c2ccc(O)c(O)c2)oc2cc(O)cc(O)c12 [Luteolin] : increases
Cc1cc(O)c2c(c1)C(=O)c1cc(O)cc(O)c1C2=O [Emodin] : increases

====

- Test description: Plasma levels of osteogenic compounds after single oral dosing of CSE-Bu or CSE-BuF (LC-MS/MS)
- Condition description: male, Sprague Dawley, rat, in vivo, 250 mg/kg, AUC, CSE-BuF at 250 mg/kg orally, rat plasma, Mean ± SD
AUC: recorded values
Return type: number; implicit unit ng·h/mL.

O=c1cc(-c2ccc(O)cc2)oc2cc(O)c([C@@H]3O[C@H](CO)[C@@H](O)[C@H](O)[C@H]3O)c(O)c12 [Apigenin 6-C-glucoside Or Isovitexin, Apigenin 6-C-glucoside] : 17.9

Consider the record given below.
Input: Can you share its AUC? I mean this compound: "Cc1cc(O)c2c(c1)C(=O)c1cc(O)cc(O)c1C2=O"
Output: 239

====

Cmax: recorded values
- Test description: Plasma levels of osteogenic compounds after single oral dosing of CSE-Bu or CSE-BuF (LC-MS/MS)
- Condition description: male, Sprague Dawley, rat, in vivo, 250 mg/kg, Cmax, CSE-BuF at 250 mg/kg orally, rat plasma, Mean ± SD
Return type: number; implicit unit ng/mL.

O=c1cc(-c2ccc(O)cc2)oc2cc(O)c([C@@H]3O[C@H](CO)[C@@H](O)[C@H](O)[C@H]3O)c(O)c12 [Apigenin 6-C-glucoside Or Isovitexin, Apigenin 6-C-glucoside] : 7.74

Consider the record given below.
Input: Can you share its Cmax? I mean this compound: "Cc1cc(O)c2c(c1)C(=O)c1cc(O)cc(O)c1C2=O"
Output: 29.2

====

- Test description: in vivo
- Condition description: rat
Reported metric: plasma level after single oral dosing of CSE-Bu (in words)

O=c1cc(-c2ccc(O)c(O)c2)oc2cc(O)ccc12 [3′,4′,7-trihydroxyflavone (THF), 3′,4′,7-trihydroxyflavone] : not detectable
O=c1cc(-c2ccc(O)cc2)oc2cc(O)c([C@@H]3O[C@H](CO)[C@@H](O)[C@H](O)[C@H]3O)c(O)c12 [Apigenin 6-C-glucoside Or Isovitexin, Apigenin 6-C-glucoside] : not detectable
O=c1cc(-c2ccc(O)cc2)oc2cc(O)cc(O)c12 : not detectable
